- protocolNotes: in vivo
- studyConditions: Holstein, bovine, plasma, subcutaneous, 2.5 mg/kg
readoutLabel: Cmax (ng/mL)
Provide the reading as a plain figure in ng/mL.

Form field: reported Cmax of CCCNC[C@]1(O)[C@H](C)O[C@@H](O[C@H]2[C@H](C)[C@@H](O[C@@H]3O[C@H](C)C[C@H](N(C)C(=O)Nc4ccccc4)[C@H]3O)[C@](C)(O)C[C@@H](C)CN[C@H](C)[C@@H](O)[C@](C)(O)[C@@H](CC)OC(=O)[C@@H]2C)C[C@@]1(C)OC
152

====

- System: IL-6
- protocolNotes: LPS-stimulated whole bovine blood assay, MSD cytokine detection
- Type: cell-based
- studyConditions: Bos taurus, read-out: IL-6 (IC50 μM)
readoutLabel: IC50

[[record]]
molecule = "CC[C@H]1OC(=O)[C@H](C)[C@@H](O[C@H]2C[C@@](C)(OC)[C@](O)(CN3CCCCC3)[C@H](C)O2)[C@H](C)[C@@H](O[C@@H]2O[C@H](C)C[C@H](N(C)C(=O)N(C)c3ccccc3)[C@H]2O)[C@](C)(O)C[C@@H](C)CN[C@H](C)[C@@H](O)[C@]1(C)O [Example J-18]"
observedresult = "17 µM"

[[record]]
molecule = "CCCNC[C@]1(O)[C@H](C)O[C@@H](O[C@H]2[C@H](C)[C@@H](O[C@@H]3O[C@H](C)C[C@H](N(C)C(=O)Nc4cnn(C)c4)[C@H]3O)[C@](C)(O)C[C@@H](C)CN[C@H](C)[C@@H](O)[C@](C)(O)[C@@H](CC)OC(=O)[C@@H]2C)C[C@@]1(C)OC [Example H-74]"
observedresult = "> 500 µM"


Form field: reported IC50 of CCCNC[C@]1(O)[C@H](C)O[C@@H](O[C@H]2[C@H](C)[C@@H](O[C@@H]3O[C@H](C)C[C@H](N(C)C(=O)N(C)c4cnn(C)c4)[C@H]3O)[C@](C)(O)C[C@@H](C)CN[C@H](C)[C@@H](O)[C@](C)(O)[C@@H](CC)OC(=O)[C@@H]2C)C[C@@]1(C)OC [Example H-58]
> 250 µM
